Target: HLA-A*24 (peptide-receptive MHC class I monomer of the UV-ligand exchange assay) (human)
Test: UV-ligand exchange with anti-b2m ELISA
EXPERIMENTAL_READOUT: peptide exchange yield

The following binders have reported results that may help.
> print(dat)
                                    binder    experimental.readout  test.result
1   GFFIFNERF [Peptide SEQ ID NO: 190 (…)]  peptide exchange yield    50 to 75%
2  NYYEVHKELF [Peptide SEQ ID NO: 270 (…)]  peptide exchange yield    50 to 75%
3   LYNKGFIYL [Peptide SEQ ID NO: 159 (…)]  peptide exchange yield        > 75%
4   TYIKPISKL [Peptide SEQ ID NO: 273 (…)]  peptide exchange yield    50 to 75%
5   KYMVYPQTF [Peptide SEQ ID NO: 267 (…)]  peptide exchange yield        > 75%

input: Reported peptide exchange yield for EYSLFPGQVVI [Peptide SEQ ID NO: 197 (…)] : what is it?
output: 50 to 75%

input: Param item = LYITEPKTI [Peptide SEQ ID NO: 287 (…)] ; retrieve measured peptide exchange yield.
output: 50 to 75%

These entries and their values trace back to patent US20170189511A1.
